Target: His6-avi-MBP-tagged POLE2
Assay: Single-point nHU-MS with recombinant His6-avi-MBP-POLE2 bait, Jurkat extract
Type: binding, human
Conditions: significant apparent affinity of endogenous prey protein for POLE2 bait; single-point nHU-MS; Figure S11
Description: So far, our study only focused on a few hand-picked NPF motifs and studied them as short synthetic peptides. […] Single point nHU measurements were performed at 26 μM POLE2 concentration and the recovered supernatant was measured by label free proteomic MS measurements (Fig. 3A, Supplementary Figs. 8A, 9, Supplementary Data 1). […]
Recorded measurements of pKapp_sign, one per entry
Readout: pKapp_sign

Molecule: URM1 (protein, UniProt Q9BTM9 1-101, looked up) Ubiquitin-related modifier 1: MAAPLSVEVEFGGGAELLFDGIKKHRVTLPGQEEPWDIRNLLIWIKKNLLKERPELFIQGDSVRPGILVLINDADWELLGELDYQLQDQDSVLFISTLHGG
Measured number: 4.219

Molecule: NUP35 (protein, UniProt Q8NFH5 1-326, looked up) Nucleoporin NUP35: MAAFAVEPQGPALGSEPMMLGSPTSPKPGVNAQFLPGFLMGDLPAPVTPQPRSISGPSVGVMEMRSPLLAGGSPPQPVVPAHKDKSGAPPVRSIYDDISSPGLGSTPLTSRRQPNISVMQSPLVGVTSTPGTGQSMFSPASIGQPRKTTLSPAQLDPFYTQGDSLTSEDHLDDSWVTVFGFPQASASYILLQFAQYGNILKHVMSNTGNWMHIRYQSKLQARKALSKDGRIFGESIMIGVKPCIDKSVMESSDRCALSSPSLAFTPPIKTLGTPTQPGSTPRISTMRPLATAYKASTSDYQVISDRQTPKKDESLVSKAMEYMFGW
Measured number: 4.141

Molecule: LMO4 (protein, UniProt P61968 1-165, looked up) LIM domain transcription …: MVNPGSSSQPPPVTAGSLSWKRCAGCGGKIADRFLLYAMDSYWHSRCLKCSCCQAQLGDIGTSCYTKSGMILCRNDYIRLFGNSGACSACGQSIPASELVMRAQGNVYHLKCFTCSTCRNRLVPGDRFHYINGSLFCEHDRPTALINGHLNSLQSNPLLPDQKVC
Measured number: 4.815

Molecule: FBXO45 (protein, UniProt P0C2W1 2-286, looked up) F-box/SPRY domain-containing …: AAPAPGAGAASGGAGCSGGGAGAGAGSGSGAAGAGGRLPSRVLELVFSYLELSELRSCALVCKHWYRCLHGDENSEVWRSLCARSLAEEALRTDILCNLPSYKAKIRAFQHAFSTNDCSRNVYIKKNGFTLHRNPIAQSTDGARTKIGFSEGRHAWEVWWEGPLGTVAVIGIATKRAPMQCQGYVALLGSDDQSWGWNLVDNNLLHNGEVNGSFPQCNNAPKYQIGERIRVILDMEDKTLAFERGYEFLGVAFRGLPKVCLYPAVSAVYGNTEVTLVYLGKPLDG
Measured number: 4.883

Molecule: PITPNA (protein, UniProt Q00169 2-270, looked up) Phosphatidylinositol transfer …: VLLKEYRVILPVSVDEYQVGQLYSVAEASKNETGGGEGVEVLVNEPYEKDGEKGQYTHKIYHLQSKVPTFVRMLAPEGALNIHEKAWNAYPYCRTVITNEYMKEDFLIKIETWHKPDLGTQENVHKLEPEAWKHVEAVYIDIADRSQVLSKDYKAEEDPAKFKSIKTGRGPLGPNWKQELVNQKDCPYMCAYKLVTVKFKWWGLQNKVENFIHKQERRLFTNFHRQLFCWLDKWVDLTMDDIRRMEEETKRQLDEMRQKDPVKGMTADD
Measured number: 4.604
